The entries below come with measured phosphorylation enrichment values attached.
Target: FGFR1 (UniProt P11362)
Sequence (P11362 whole entry, looked up): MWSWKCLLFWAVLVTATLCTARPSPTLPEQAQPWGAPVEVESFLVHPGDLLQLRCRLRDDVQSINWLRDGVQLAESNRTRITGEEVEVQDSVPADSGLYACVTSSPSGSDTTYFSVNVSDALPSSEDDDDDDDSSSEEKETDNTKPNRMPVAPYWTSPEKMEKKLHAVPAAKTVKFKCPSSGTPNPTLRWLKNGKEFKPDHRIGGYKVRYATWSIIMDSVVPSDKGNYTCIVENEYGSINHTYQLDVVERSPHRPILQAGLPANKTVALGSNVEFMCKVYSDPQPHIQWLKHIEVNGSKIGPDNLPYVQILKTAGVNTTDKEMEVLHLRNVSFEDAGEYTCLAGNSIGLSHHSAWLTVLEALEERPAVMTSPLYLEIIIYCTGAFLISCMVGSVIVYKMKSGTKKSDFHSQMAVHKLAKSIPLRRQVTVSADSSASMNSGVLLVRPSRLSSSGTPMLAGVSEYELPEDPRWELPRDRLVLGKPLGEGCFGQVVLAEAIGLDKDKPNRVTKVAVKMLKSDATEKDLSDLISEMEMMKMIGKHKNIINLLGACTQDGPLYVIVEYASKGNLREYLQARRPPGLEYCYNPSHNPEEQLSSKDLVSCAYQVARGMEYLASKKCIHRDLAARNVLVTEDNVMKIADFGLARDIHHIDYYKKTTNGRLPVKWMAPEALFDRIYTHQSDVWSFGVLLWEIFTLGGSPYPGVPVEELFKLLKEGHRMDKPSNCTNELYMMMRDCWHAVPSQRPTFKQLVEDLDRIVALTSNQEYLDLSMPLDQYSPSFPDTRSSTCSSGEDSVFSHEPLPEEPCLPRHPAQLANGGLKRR
Assay: phosphorylation enrichment, bacterial display (enrichment ratio); higher = better substrate or ligand; peptides without Tyr show the background;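 note: 11-residue human phosphosite peptides and single-mutation variants displayed on the E. coli surface, counted by deep sequencing, each peptide's frequency after selection divided by its frequency in the unselected input library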;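 note: frequency after pTyr selection over input frequency; kinase dosed for 20-30% of maximal phosphorylation in three min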
Give a plain numeric answer without units written out.

Recorded phosphorylation enrichment, per entry:
[[record]]
sequence_content = "RTEAQYRFIFM [PTPN11_Y511_Q506R_YF]"
data_value = 0.512

[[record]]
sequence_content = "RRRLIYRCQVG [NR2E3_Y81]"
data_value = 0.854

[[record]]
sequence_content = "GEVKAYGAGLL [TH_Y419]"
data_value = 0.453

[[record]]
sequence_content = "KPEKTYGLRKE [CEP43_Y267]"
data_value = 0.344


Problem: Name the recorded phosphorylation enrichment of the sequence listed here: CTTIHSNYMCN [TP53_Y234_Y234S]
Result: 0.483

Problem: Name the recorded phosphorylation enrichment of the sequence listed here: FIGVTYKNKED [PDGFRA_Y993_E996K_YF]
Result: 0.458

Problem: Name the recorded phosphorylation enrichment of the sequence listed here: ILTLKYPIEHG [ACTA1_Y71]
Result: 0.47

###

Tested on: Fer (mouse)
Experiment: phosphorylation enrichment, bacterial display (enrichment ratio); higher = better substrate or ligand; peptides without Tyr show the background
The entries below come with measured phosphorylation enrichment values attached.
Give a plain numeric answer without units written out.

Recorded phosphorylation enrichment, per entry:
[[record]]
sequence_content = "SYVVRYNQPRV [GRIN2D_Y736_M733V]"
target_or_system = "Fer (mouse)"
data_value = 0.419

[[record]]
sequence_content = "RFLERYIYNPE [HLA-DPB1_Y57_R61P]"
target_or_system = "Fer (mouse)"
data_value = 0.636


Problem: State the measured phosphorylation enrichment (Fer (mouse)) of RNPLRYTSILT [OR51B6_Y130_S126N]
Result: 0.474

Problem: State the measured phosphorylation enrichment (Fer (mouse)) of VTSLKYSTPPF [BRIP1_Y916_S919P_YF]
Result: 0.38

Problem: State the measured phosphorylation enrichment (Fer (mouse)) of TRFDEYLEVTK [MAP1A_Y2217_H2214Y_YF]
Result: 0.501

Problem: State the measured phosphorylation enrichment (Fer (mouse)) of SNMPTYSGHFS [GRIN2A_Y1224_T1229S]
Result: 1.04

Problem: State the measured phosphorylation enrichment (Fer (mouse)) of MALDIYRASFF [ALK_Y1278_R1275L_YF]
Result: 0.599

Problem: State the measured phosphorylation enrichment (Fer (mouse)) of GAMGHYVLAER [HFE_Y342]
Result: 0.453

Problem: State the measured phosphorylation enrichment (Fer (mouse)) of IEKLPYIDKWF [CPS1_Y872_T871P]
Result: 0.333

###

Target: MERTK (UniProt Q12866)
Sequence (Q12866 whole entry, looked up): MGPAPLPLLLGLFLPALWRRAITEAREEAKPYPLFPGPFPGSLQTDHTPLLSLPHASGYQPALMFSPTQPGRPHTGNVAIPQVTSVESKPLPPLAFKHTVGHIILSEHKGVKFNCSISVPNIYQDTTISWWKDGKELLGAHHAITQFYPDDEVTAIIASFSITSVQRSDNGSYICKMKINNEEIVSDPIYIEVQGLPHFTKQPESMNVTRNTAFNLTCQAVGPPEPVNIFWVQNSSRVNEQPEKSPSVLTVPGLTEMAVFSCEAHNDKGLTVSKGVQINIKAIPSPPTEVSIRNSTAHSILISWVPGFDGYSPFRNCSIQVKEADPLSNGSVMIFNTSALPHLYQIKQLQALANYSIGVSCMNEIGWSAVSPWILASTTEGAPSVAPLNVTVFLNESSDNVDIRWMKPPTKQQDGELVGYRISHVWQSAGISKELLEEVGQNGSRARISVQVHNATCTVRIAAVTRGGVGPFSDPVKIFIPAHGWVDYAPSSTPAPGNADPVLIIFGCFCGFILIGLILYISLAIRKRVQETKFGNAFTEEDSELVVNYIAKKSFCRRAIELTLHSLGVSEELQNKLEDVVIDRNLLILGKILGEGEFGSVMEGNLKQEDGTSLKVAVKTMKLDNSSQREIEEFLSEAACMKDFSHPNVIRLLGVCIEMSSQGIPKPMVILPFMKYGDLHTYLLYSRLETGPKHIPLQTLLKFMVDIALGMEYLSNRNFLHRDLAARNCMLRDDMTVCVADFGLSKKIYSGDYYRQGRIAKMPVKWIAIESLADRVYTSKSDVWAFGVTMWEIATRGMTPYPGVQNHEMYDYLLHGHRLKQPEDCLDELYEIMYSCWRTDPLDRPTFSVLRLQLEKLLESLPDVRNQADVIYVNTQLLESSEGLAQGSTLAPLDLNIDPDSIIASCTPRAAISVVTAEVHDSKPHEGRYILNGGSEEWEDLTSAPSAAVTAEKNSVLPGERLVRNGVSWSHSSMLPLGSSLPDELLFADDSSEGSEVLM
Experiment: phosphorylation enrichment, bacterial display (enrichment ratio); higher = better substrate or ligand; peptides without Tyr show the background
property_name: phosphorylation enrichment

Recorded phosphorylation enrichment, per entry:
[[record]]
sequence_content = "GTQCSYLLSRK [UGT3A1_Y123]"
target_or_system = "MERTK (UniProt Q12866)"
data_value = 0.436

[[record]]
sequence_content = "LEDDVYRKTCT [XPA_Y257_M256V]"
target_or_system = "MERTK (UniProt Q12866)"
data_value = 0.864

[[record]]
sequence_content = "LERFIYNREEF [HLA-DPB1_Y59_F64Y_YF]"
target_or_system = "MERTK (UniProt Q12866)"
data_value = 0.652


Problem: State the measured phosphorylation enrichment (MERTK (UniProt Q12866)) of GPQGVYSNKLV [PTPN14_Y506]
Result: 0.519

Problem: State the measured phosphorylation enrichment (MERTK (UniProt Q12866)) of QRKPSYNQLAS [BRCA2_Y71]
Result: 0.392

Problem: State the measured phosphorylation enrichment (MERTK (UniProt Q12866)) of GGCQEYTGAPY [NAXD_Y85]
Result: 0.409
